test_details: Inhibition of Saccharomyces cerevisiae alpha-glucosidase using para-nitrophenyl-alpha-D-glucopyranoside as substrate preincubated for 15 mins followed by substrate addition measured after 30 mins by spectrophotometric method
property_name: pIC50
The scale used: pIC50 is minus the common logarithm of the concentration in molar units.

> print(dat)
                                   compound  recorded.measurement
1  OC(CSc1nnc(-c2ccccc2)c(-c2ccccc2)n1)Cn1c2ccccc2c2ccccc21 (centres undefined)                  4.50
2  OC(CSc1nnc(-c2ccccc2)c(-c2ccccc2)n1)Cn1c2ccc(Cl)cc2c2cc(Cl)ccc21 (centres undefined)                  4.56
3  OC(CSc1nnc(-c2cccc(Br)c2)c(-c2cccc(Br)c2)n1)Cn1c2ccccc2c2ccccc21 (centres undefined)                  4.70

## Input Which pIC50 value belongs to OC(CSc1nnc(-c2ccccc2F)c(-c2ccccc2F)n1)Cn1c2ccccc2c2ccccc21 (centres undefined) ?
## Output 4.67

## Input Which pIC50 value belongs to OC(CSc1nnc(-c2ccccc2F)c(-c2ccccc2F)n1)Cn1c2ccc(Br)cc2c2cc(Br)ccc21 (centres undefined) ?
## Output 4.89

## Input Which pIC50 value belongs to OC(CSc1nnc(-c2cccc(F)c2)c(-c2cccc(F)c2)n1)Cn1c2ccc(Cl)cc2c2cc(Cl)ccc21 (centres undefined) ?
## Output 4.48

## Input Which pIC50 value belongs to OC(CSc1nnc(-c2ccco2)c(-c2ccco2)n1)Cn1c2ccccc2c2ccccc21 (centres undefined) ?
## Output 4.75

## Input Which pIC50 value belongs to OC(CSc1nnc(-c2ccco2)c(-c2ccco2)n1)Cn1c2ccc(Cl)cc2c2cc(Cl)ccc21 (centres undefined) ?
## Output 5.03

## Input Which pIC50 value belongs to OC(CSc1nnc(-c2ccccc2)c(-c2ccccc2)n1)Cn1c2ccc(Br)cc2c2cc(Br)ccc21 (centres undefined) ?
## Output 4.71
